Quick reference: specific binding MFI of the listed items.
tested_on: T1, human TIM-3 on cells (human, UniProt Q8TDQ0 22-301)
T1 construct: also called CHO-Tim3; rec CHOK1 cells expressing huTIM-3
assay_info: flow cytometry, human CD14+ monocytes donor3
outcome_measure: specific binding MFI

[[record]]
binder = "Tim3_0038 (antibody, V domains shown) VH: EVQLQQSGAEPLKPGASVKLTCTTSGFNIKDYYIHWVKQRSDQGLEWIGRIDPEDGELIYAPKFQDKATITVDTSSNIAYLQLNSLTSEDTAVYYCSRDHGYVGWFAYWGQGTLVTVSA VL: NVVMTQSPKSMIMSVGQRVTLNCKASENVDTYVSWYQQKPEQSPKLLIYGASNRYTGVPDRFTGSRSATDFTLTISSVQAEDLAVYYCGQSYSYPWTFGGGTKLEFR"
measurement = "1400 MFI"

[[record]]
binder = "Tim3_0021 (antibody, V domains shown) VH: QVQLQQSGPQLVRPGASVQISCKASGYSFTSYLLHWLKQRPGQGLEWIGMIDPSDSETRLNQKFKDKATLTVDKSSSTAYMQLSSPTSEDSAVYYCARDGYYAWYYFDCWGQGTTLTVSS VL: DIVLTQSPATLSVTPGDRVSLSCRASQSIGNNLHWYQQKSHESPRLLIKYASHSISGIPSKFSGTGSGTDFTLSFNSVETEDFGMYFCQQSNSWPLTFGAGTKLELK"
measurement = "1200 MFI"

[[record]]
binder = "Tim3_0033 (antibody, V domains shown) VH: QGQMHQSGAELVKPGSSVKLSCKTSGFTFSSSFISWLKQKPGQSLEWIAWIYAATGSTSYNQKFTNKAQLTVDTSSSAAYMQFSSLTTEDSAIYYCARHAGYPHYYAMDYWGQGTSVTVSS VL: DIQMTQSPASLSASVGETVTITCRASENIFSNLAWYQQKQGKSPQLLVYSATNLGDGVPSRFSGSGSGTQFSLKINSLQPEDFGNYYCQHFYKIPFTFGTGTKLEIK"
measurement = "595 MFI"


# credit: patent US20210087291A1
